Biological target: T1, human 4-1BB His protein (Sinobiological, Beijing #10041-H08H) (human, UniProt Q07011 24-186, biotinylated in the capture ELISA (sites not given))
T1 construct: Bought protein; also called biotinylated 4-1BB-his protein; not shown: His tag
Assay: capture ELISA, antibody captured, biotinylated 4-1BB-his
reported.property: EC50 (µg/mL)

# binder, reported.property, readout.value
measured = [
    ("MOR7480 (Pfizer) (antibody, V domains shown) VH: QVQLVQSGAEVKKPGESLKISCKGSGYSFSTYWISWVRQMPGKGLEWMGKIYPGDSYTNYSPSFQGQVTISADKSISTAYLQWSSLKASDTAMYYCARGYGIFDYWGQGTLVTVSS VL: DIELTQPPSVSVAPGQTARISCSGDNIGDQYAHWYQQKPGQAPVVVIYQDKNRPSGIPERFSGSNSGNTATLTISGTQAEDEADYYCATYTGFGSLAVFGGGTKLTVL", "EC50", 0.084),
    ("murine mAb B1E7 (antibody, V domains shown, Murine hybridoma antibody) VH: EVQLQQSGAELVRAGSSVEMSCKASGYTFTSYGLNWVKQRPGQGLEWIGYINPGSGYTKYNEKFEGKTTLTVDKSSSTVYMQLRSLTSEDSAVYFCARWGLGRNWNFAVWGTGTTVTVSS VL: DIVLTQSPASLAVSLGQRATMSCRASESVDSYGNTFMHWYQQKPGQPPKLLIYRASNLESGIPARFSGSGSGTDFTLTINPVEADDVATYYCQQSNEDPLTFGSGTKLEIK", "EC50", 0.332),
    ("murine mAb B1A7 (antibody, V domains shown, Murine hybridoma antibody) VH: QVTLKESGPGILQPSQTLSLTCSFSGFSLSTSGMGVGWIRQPSGKGLEWLAHIWWDDVKRYNPALKSRLTISKDTSSSQVFLKIASVDTADTATYYCAQMTSSVFAYWGQGTLVTVSA VL: DIVLTQSPDSLAVSLGQRATISCRASESVDSYGHSFMHWYQQKPGQPPKLLIYRASNLESGIPARFSGSGSRTDFTLTINVVEADDVATYYCHQSYEEPWTFGGGTKLEIK", "EC50", 0.0559),
]

Reference source for all entries: patent US20210363266A1
